Parameter: selectivity ratio. Scope: all listed entries.
System: polyamine transporter
Assay: Ratio of IC50 for polyamine transporter deficient […] cells to IC50 for CHO cells
Type: cell-based, Cricetulus griseus
Conditions: chinese hamster, polyamine transporter deficient CHO-GM cells and CHO cells; read-out: Ratio IC50
Output: the number by itself.

Examples from the recorded data:
smiles.str: CCN(CCCN)Cc1c2ccccc2cc2ccccc12
readout.name: selectivity ratio
assay.value: 0.9
//
smiles.str: NCCCCNCCCNCc1c2ccccc2cc2ccccc12
readout.name: selectivity ratio
assay.value: 3.5
//
smiles.str: NCCCNCCCCNCc1c2ccccc2cc2ccccc12
readout.name: selectivity ratio
assay.value: 24
//
smiles.str: CCN(CCCCNCCCCN)Cc1c2ccccc2cc2ccccc12
readout.name: selectivity ratio
assay.value: 1
//
smiles.str: NCCCCNCc1c2ccccc2cc2ccccc12
readout.name: selectivity ratio
assay.value: 1

selectivity ratio in this record for NCCCNCc1c2ccccc2cc2ccccc12 : 1

Please fill in: selectivity ratio reported for CCN(CCCNCCCN)Cc1c2ccccc2cc2ccccc12 = 0.8

Reported selectivity ratio for NCCCNCCCNCc1c2ccccc2cc2ccccc12 was 1.8

Sure, the documented selectivity ratio for NCCCCNCCCCNCc1c2ccccc2cc2ccccc12 is 148

====

Assay: Inhibition of disc eversion in Drosophila melanogaster imaginal disc cells at 18 uM in presence of spermidine
Assay type: functional
readout.name: inhibition at 18 µM (%)
State the answer as a number, implicitly in %.

Reference set, count: 6
smiles.str: NCCCNCCCCNCc1c2ccccc2cc2ccccc12
value.unit: %
assay.value: 23.8

smiles.str: NCCCNCCCNCc1c2ccccc2cc2ccccc12
value.unit: %
assay.value: 100

smiles.str: CCN(CCCNCCCN)Cc1c2ccccc2cc2ccccc12
value.unit: %
assay.value: 100

smiles.str: NCCCCNCCCNCc1c2ccccc2cc2ccccc12
value.unit: %
assay.value: 9.9

smiles.str: NCCCNCc1c2ccccc2cc2ccccc12
value.unit: %
assay.value: 100

smiles.str: CCN(CCCN)Cc1c2ccccc2cc2ccccc12
value.unit: %
assay.value: 90

So for NCCCCNCCCCNCc1c2ccccc2cc2ccccc12 , the logged inhibition at 18 µM turned out to be 8.7

Reported inhibition at 18 µM of NCCCCNCc1c2ccccc2cc2ccccc12 : 100

====

Test: Inhibition of PAT assessed as cytotoxicity against CHO cells
Assay type: cell-based
Details: Cricetulus griseus
readout.name: IC50 (nM)
Reply with just the number (in nM).

smiles.str: NCCCCNCCCNCc1c2ccccc2cc2ccccc12
assay.value: 2500

smiles.str: NCCCCNCc1c2ccccc2cc2ccccc12
assay.value: 7700

smiles.str: NCCCNCCCCNCc1c2ccccc2cc2ccccc12
assay.value: 400

smiles.str: NCCCNCc1c2ccccc2cc2ccccc12
assay.value: 2300

smiles.str: NCCCNCCCNCc1c2ccccc2cc2ccccc12
assay.value: 1900

The compound identified as NCCCCNCCCCNCc1c2ccccc2cc2ccccc12 registered its IC50 at 450

Notebook: CCN(CCCN)Cc1c2ccccc2cc2ccccc12 , IC50 read as 7700

IC50 in this record for CCN(CCCNCCCN)Cc1c2ccccc2cc2ccccc12 : 5300

Data provenance is ChEMBL document CHEMBL1140719.
